B1: F1*; the commonest letter at each place (parent)
chain: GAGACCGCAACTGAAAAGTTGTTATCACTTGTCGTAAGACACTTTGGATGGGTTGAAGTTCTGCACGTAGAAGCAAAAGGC

# Variants of: B1
# method.summary: fraction ligated after 30 min (ligated reads / total reads); higher = more ligase activity
# setup.conditions: with F1*sub RNA substrate (template-directed ligation), 42 °C
Record form. Attribute: fraction ligated. Fill in for each entry.
One number for each entry.

Past entries and their recorded results:
1) GAGACCGCAACTGAAAAGTTGTTATCACTTGTCGTAAGATACTTTGAATGGGTTGAAGTTCTGCACGTAGAAGCAAAAGGC	0.798
2) GAGACCGCAACTGAAAAGTTGTTATCAATTGTCGTAAGACACCTTGGATGGGTTGAAGTTCTGCACGTAGAAGCAAAAGGC	0.795
3) GAGACCGCAACTGAAAAGTTGTTATCACTTGTCGTAAGACACTTTGGCTGGGTTGCAGTTCTGCACGTAGAAGCAAAAGGC	0.185
4) GAGACCGCAACTGAAAAGTTGTTATCACTTGTCGTTAGACACTTTGGTTGGGTTGAAGTTCTGCACGTAGAAGCAAAAGGC	0.792
5) GAGACCGCAACTGAAAAGTTGTTATAACTTGTCGTAAGACACTTTGGACGGGTTGAAGTTCTGCACGTAGAAGCAAAAGGC	0.0891

Each of the following entries comes with a recorded value; kindly state fraction ligated for each.
1. GAGACCGCAACTGAAAAGTTGTTATCACTTGTCTTAAGACACTTAGGATGGGTTGAAGTTCTGCACGTAGAAGCAAAAGGC
2. GAGACCGCAACTGAAAAGTTGTTATCACTTGTCGTATGACACTTTGGATGGGTTAAAGTTCTGCACGTAGAAGCAAAAGGC

0.794
0.862

Quick batch: fraction ligated for everything below.
1. GAGACCGCAACTGAAAAGTTGTTATCACTTGTTGTAAGACACTTTGGATGGGTTGGAGTTCTGCACGTAGAAGCAAAAGGC
2. GAGACCGCAACTGAAAAGTTGTTATCACTAGTCGTGAGACACTTTGGATGGGTTGAAGTTCTGCACGTAGAAGCAAAAGGC
3. GAGACCGCAACTGAAAAGTTGTTATCACTTGTCTTAAGACACTTTGGATGGGTTGGAGTTCTGCACGTAGAAGCAAAAGGC
4. GAGACCGCAACTGAAAAGTTGTTAACACTGGTCGTAAGACACTTTGGATGGGTTGAAGTTCTGCACGTAGAAGCAAAAGGC
5. GAGACCGCAACTGAAAAGTTGTTATCACGTGTCGTAAGACTCTTTGGATGGGTTGAAGTTCTGCACGTAGAAGCAAAAGGC
6. GAGACCGCAACTGAAAAGTTGTTATCACATGTCGTAAGACATTTTGGATGGGTTGAAGTTCTGCACGTAGAAGCAAAAGGC
7. GAGACCGCAACTGAAAAGTTGTTATCACTTGTCTTAACACACTTTGGATGGGTTGAAGTTCTGCACGTAGAAGCAAAAGGC
8. GAGACCGCAACTGAAAAGTTGTTATCACTTGTCGTAAGACTCTTTGGATGGGTTGCAGTTCTGCACGTAGAAGCAAAAGGC

1. 0.797
2. 0.832
3. 0.785
4. 0.461
5. 0.833
6. 0.826
7. 0.83
8. 0.784

Hey, quick one: what's fraction ligated for each of these?
1. GAGACCGCAACTGAAAAGTTGTTATCACTTGTCGTAAGACAATTCGGATGGGTTGAAGTTCTGCACGTAGAAGCAAAAGGC
2. GAGACCGCAACTGAAAAGTTGTTATCACTCGTCCTAAGACACTTTGGATGGGTTGAAGTTCTGCACGTAGAAGCAAAAGGC

1. 0.778
2. 0.746

Quick one: give me fraction ligated for each item below, same order please.
1. GAGACCGCAACTGAAAAGTTGTTATCACTTGTCGTATGACACTTTGGATGGGTTGCAGTTCTGCACGTAGAAGCAAAAGGC
2. GAGACCGCAACTGAAAAGTTGTTATCACTTGTCCTAAGACACTTTGGATGGGTTGGAGTTCTGCACGTAGAAGCAAAAGGC
3. GAGACCGCAACTGAAAAGTTGTTATTACGTGTCGTAAGACACTTTGGATGGGTTGAAGTTCTGCACGTAGAAGCAAAAGGC

0.786
0.794
0.816

Values compiled from the supplement of paper PMC6755084.
